Provenance of the data: ChEMBL document CHEMBL1152921

Measured Activity, listed per entry for reference.
System: Rattus norvegicus
protocol.text: Antidiuretic activity in fasted and hydrated Wistar rat assessed as compound required to yield antidiuresis time of 200 mins required for urinary excretion of half the water load at 0.001 to 100 nmol/kg, sc administered immediately after water loading by modified Burn test
Type: functional, Urine
Where a SMILES comes first, the peptide text is derived from it. Bridges are numbered along the chain shown (N, C = ends). [ ]: non-standard residue; d: D form. Aic = NC1(C(=O)O)Cc2ccccc2C1

# example entries with known answers
compound | measurement.target | readout.label | measured.value
N=C(N)NCCC[C@H](NC(=O)[C@@H]1CCCN1C(=O)[C@@H]1CSSC2(CCCCC2)CC(=O)N[C@@H](C(c2ccccc2)c2ccccc2)C(=O)N[C@@H](Cc2ccccc2)C(=O)N[C@@H](CCC(N)=O)C(=O)N[C@@H](CC(N)=O)C(=O)N1)C(=O)NCC(N)=O | Rattus norvegicus | Activity | <4.5 IU/mg
CC(C)[C@@H]1NC(=O)[C@H](Cc2ccccc2)NC(=O)[C@H](C(c2ccccc2)c2ccccc2)NC(=O)CCSSC[C@@H](C(=O)N2CCC[C@H]2C(=O)N[C@@H](CCCNC(=N)N)C(=O)NCC(N)=O)NC(=O)[C@H](CC(N)=O)NC1=O | Rattus norvegicus | Activity | 20000 IU/mg
CC(C)[C@@H]1NC(=O)[C@H](Cc2ccccc2)NC(=O)[C@H](C(c2ccccc2)c2ccccc2)NC(=O)CCSSC[C@@H](C(=O)N2CCC[C@H]2C(=O)N[C@H](CCCNC(=N)N)C(=O)NCC(N)=O)NC(=O)[C@H](CC(N)=O)NC1=O (stereo in doubt; form 1) | Rattus norvegicus | Activity | 4500 IU/mg

// field: Activity; key: N=C(N)NCCC[C@H](NC(=O)[C@@H]1CCCN1C(=O)[C@@H]1CSSC[C@H](N)C(=O)NC2(Cc3ccccc3C2)C(=O)N[C@@H](Cc2ccccc2)C(=O)N[C@@H](CCC(N)=O)C(=O)N[C@@H](CC(N)=O)C(=O)N1)C(=O)NCC(N)=O (H-C[Aic]FQNCPRG-NH2; disulfide 1-6) ; value = 45000 IU/mg

Form field Activity, entry N=C(N)NCCC[C@@H](NC(=O)[C@@H]1CCCN1C(=O)[C@@H]1CSSC[C@H](N)C(=O)N[C@@H](C(c2ccccc2)c2ccccc2)C(=O)N[C@@H](Cc2ccccc2)C(=O)N[C@@H](CCC(N)=O)C(=O)N[C@@H](CC(N)=O)C(=O)N1)C(=O)NCC(N)=O : 3000 IU/mg

The measured Activity associated with N=C(N)NCCC[C@H](NC(=O)[C@@H]1CCCN1C(=O)[C@@H]1CSSC[C@H](N)C(=O)N[C@@H](Cc2ccc(O)cc2)C(=O)N[C@@H](Cc2ccccc2)C(=O)N[C@@H](CCC(N)=O)C(=O)N[C@@H](CC(N)=O)C(=O)N1)C(=O)NCC(N)=O [VASOPRESSIN] reads 450 IU/mg

Noted for CC(C)[C@@H]1NC(=O)[C@H](Cc2ccccc2)NC(=O)[C@H](C(c2ccccc2)c2ccccc2)NC(=O)CCSSC[C@@H](C(=O)N2CCC[C@H]2C(=O)N[C@H](CCCNC(=N)N)C(=O)NCC(N)=O)NC(=O)[C@H](CC(N)=O)NC1=O (stereo in doubt; form 2) : its Activity reads 450000 IU/mg

So, N=C(N)NCCC[C@H](NC(=O)[C@@H]1CCCN1C(=O)[C@@H]1CSSCCC(=O)N[C@H](C(c2ccccc2)c2ccccc2)C(=O)N[C@@H](Cc2ccccc2)C(=O)N[C@@H](CCC(N)=O)C(=O)N[C@@H](CC(N)=O)C(=O)N1)C(=O)NCC(N)=O ? Its Activity was 200000 IU/mg

Item: N=C(N)NCCC[C@@H](NC(=O)[C@@H]1CCCN1C(=O)[C@@H]1CSSCCC(=O)N[C@H](C(c2ccccc2)c2ccccc2)C(=O)N[C@@H](Cc2ccccc2)C(=O)N[C@@H](CCC(N)=O)C(=O)N[C@@H](CC(N)=O)C(=O)N1)C(=O)NCC(N)=O | Activity: 225000 IU/mg

# Activity of N=C(N)NCCC[C@@H](NC(=O)[C@@H]1CCCN1C(=O)[C@@H]1CSSCCC(=O)N[C@@H](C(c2ccccc2)c2ccccc2)C(=O)N[C@@H](Cc2ccccc2)C(=O)N[C@@H](CCC(N)=O)C(=O)N[C@@H](CC(N)=O)C(=O)N1)C(=O)NCC(N)=O = 20000 IU/mg

Briefly, Activity measured for N=C(N)NCCC[C@H](NC(=O)[C@@H]1CCCN1C(=O)[C@@H]1CSSCCC(=O)NC(C(c2ccccc2)c2ccccc2)C(=O)N[C@@H](Cc2ccccc2)C(=O)N[C@@H](CCC(N)=O)C(=O)N[C@@H](CC(N)=O)C(=O)N1)C(=O)NCC(N)=O (single isomer, unassigned) : 45000 IU/mg

Measured Activity, CC(C)[C@@H]1NC(=O)[C@H](Cc2ccccc2)NC(=O)[C@@H](C(c2ccccc2)c2ccccc2)NC(=O)CCSSC[C@@H](C(=O)N2CCC[C@H]2C(=O)N[C@H](CCCNC(=N)N)C(=O)NCC(N)=O)NC(=O)[C@H](CC(N)=O)NC1=O : 450000 IU/mg

---

System: Rattus norvegicus
protocol.text: Antidiuretic activity in fasted and hydrated Wistar rat assessed as compound required to yield antidiuresis time of 60 mins required for urinary excretion of half the water load at 0.001 to 100 nmol/kg, sc administered immediately after water loading by modified Burn test
Type: functional, Urine
Overview of recorded Activity for various molecules
Number in IU/mg, nothing else.

molecule | Activity / IU/mg
N=C(N)NCCC[C@H](NC(=O)[C@@H]1CCCN1C(=O)[C@@H]1CSSCCC(=O)NC(C(c2ccccc2)c2ccccc2)C(=O)N[C@@H](Cc2ccccc2)C(=O)N[C@@H](CCC(N)=O)C(=O)N[C@@H](CC(N)=O)C(=O)N1)C(=O)NCC(N)=O (single isomer, unassigned) | 450

For reference, reported Activity for NC(=O)CC[C@@H]1NC(=O)[C@H](Cc2ccccc2)NC(=O)[C@H](Cc2ccc(O)cc2)NC(=O)[C@@H](N)CSSC[C@@H](C(=O)N2CCC[C@H]2C(=O)N[C@H](CCCN=C(N)N)C(=O)NCC(N)=O)NC(=O)[C@H](CC(N)=O)NC1=O stands at 111

molecule CC(C)[C@@H]1NC(=O)[C@H](Cc2ccccc2)NC(=O)[C@@H](C(c2ccccc2)c2ccccc2)NC(=O)CCSSC[C@@H](C(=O)N2CCC[C@H]2C(=O)N[C@H](CCCNC(=N)N)C(=O)NCC(N)=O)NC(=O)[C@H](CC(N)=O)NC1=O , Activity observed: 9000

// recorded Activity for N=C(N)NCCC[C@@H](NC(=O)[C@@H]1CCCN1C(=O)[C@@H]1CSSCCC(=O)N[C@@H](C(c2ccccc2)c2ccccc2)C(=O)N[C@@H](Cc2ccccc2)C(=O)N[C@@H](CCC(N)=O)C(=O)N[C@@H](CC(N)=O)C(=O)N1)C(=O)NCC(N)=O : 30

---

Tested on: Rattus norvegicus
protocol.text: Antidiuretic activity in fasted and hydrated Wistar rat assessed as compound required to yield antidiuresis time of 60 mins required for urinary excretion of half the water load at 0.001 to 100 nmol/kg, sc administered immediately after water loading by modified Burn test
Format: functional, Urine
readout.label: Activity
Number plus unit, in that order.

compound | measurement.target | readout.label | measured.value
CC(C)[C@@H]1NC(=O)[C@H](Cc2ccccc2)NC(=O)[C@H](C(c2ccccc2)c2ccccc2)NC(=O)CCSSC[C@@H](C(=O)N2CCC[C@H]2C(=O)N[C@H](CCCNC(=N)N)C(=O)NCC(N)=O)NC(=O)[C@H](CC(N)=O)NC1=O (stereo in doubt; form 1) | Rattus norvegicus | Activity | 100 IU/mg
N=C(N)NCCCC(NC(=O)[C@@H]1CCCN1C(=O)[C@@H]1CSSCCC(=O)N[C@@H](Cc2ccc(O)cc2)C(=O)N[C@@H](Cc2ccccc2)C(=O)N[C@@H](CCC(N)=O)C(=O)N[C@@H](CC(N)=O)C(=O)N1)C(=O)NCC(N)=O (single isomer, unassigned) | Rattus norvegicus | Activity | 1300 IU/mg
N=C(N)NCCC[C@@H](NC(=O)[C@@H]1CCCN1C(=O)[C@@H]1CSSCCC(=O)N[C@@H](Cc2ccc(O)cc2)C(=O)N[C@@H](Cc2ccccc2)C(=O)N[C@@H](CCC(N)=O)C(=O)N[C@@H](CC(N)=O)C(=O)N1)C(=O)NCC(N)=O | Rattus norvegicus | Activity | 800 IU/mg

Now for the compound whose Activity we want.
Short answer for N=C(N)NCCC[C@H](NC(=O)[C@@H]1CCCN1C(=O)[C@@H]1CSSC[C@H](N)C(=O)N[C@@H](Cc2ccc(O)cc2)C(=O)N[C@@H](Cc2ccccc2)C(=O)N[C@@H](CCC(N)=O)C(=O)N[C@@H](CC(N)=O)C(=O)N1)C(=O)NCC(N)=O : Activity was 450 IU/mg
